Assay: Antiproliferative activity against human L02 cells assessed as inhibition rate at 0.1 uM incubated for 72 hrs by MTT assay relative to control
Type: toxicity, cell-based
Entries and their inhibition at 72 h, 0.1 µM
Kindly answer with a numeric value in %, unit omitted.

Illustrative cases are given below, each with its answer.
Specify inhibition at 72 h, 0.1 µM for `COc1cc2c(OCCOCCNC(=O)[C@H]3[C@@H]4CNC[C@@H]43)c3c(c(-c4ccc5c(c4)OCO5)c2cc1OC)C(=O)OC3` and stop.
3.53

Specify inhibition at 72 h, 0.1 µM for `COc1cc2c(OCCOCCNC(=O)C3(F)CNC3)c3c(c(-c4ccc5c(c4)OCO5)c2cc1OC)C(=O)OC3` and stop.
3.51

Could you now look at the following compound, please?
Specify inhibition at 72 h, 0.1 µM for `COc1cc2c(O)c3c(c(-c4ccc5c(c4)OCO5)c2cc1OC)C(=O)OC3` and stop.
7.61
